Test system: NOMO1
Experiment: AUC of viability dose-response curve (% viability x log10 dose units); higher = less sensitive
Conditions: HPLM + 10% dialyzed FBS; 48 h
measure_name: AUC of viability dose-response curve
Output: the number by itself.

# count of solved cases: 8
| compound | readout_value |
| --- | --- |
| CCOC(=O)c1ccc(C#Cc2ccc3c(c2)C(C)(C)CCS3)nc1 | 436 |
| CCC(c1ccc(O)cc1)C(CC)c1ccc(O)cc1 (centres undefined) | 428 |
| CCC(CC)[C@H](NC(C)=O)[C@@H]1[C@H](O)[C@@H](C(=O)O)C[C@H]1NC(=N)N | 404 |
| CN1C(=O)COc2c(C(=O)NC3CN4CCC3CC4)cc(Cl)cc21 (centres undefined) | 448 |
| CO[C@@H]1[C@H](N(C)C(=O)c2ccccc2)C[C@H]2O[C@]1(C)n1c3ccccc3c3c4c(c5c6ccccc6n2c5c31)C(=O)NC4 | 415 |
| O=C(c1ccc(F)cc1)C1CCN(CCn2c(=O)[nH]c3ccccc3c2=O)CC1 | 469 |
| CN1CCN(c2cccc(Nc3nc4c(-c5ccc([S+](C)(=O)[O-])cc5)cccn4n3)c2)CC1 | 438 |
| COC1=CC=C(C=C1)C/2=C/OC3=CC(=CC=C3C2=O)O | 422 |

Here is the next item to consider.
For the compound `NC12CC3CC(CC(C3)C1)C2` , give its measured AUC of viability dose-response curve value.
448

====

System: P12-Ichikawa
Assay: cell viability relative to DMSO control; higher = less cytotoxic
Details: HPLM + 10% dialyzed FBS; 48 h; 15.4 µM
The following molecules are shown together with reported cell viability values.

| molecule | cell viability |
| --- | --- |
| CC(=O)SCC(Cc1ccccc1)C(=O)NCC(=O)OCc1ccccc1 (stereo not drawn) | 66.9% |
| C[Se]CCC(N)C(=O)O (stereo not drawn) | 78.8% |
| CC(C)(O)CNc1nc(Nc2ccnc(C(F)(F)F)c2)nc(-c2cccc(C(F)(F)F)n2)n1 | 10.4% |

For the molecule `NC/1=N/C(=O)N(/C=C1)[C@H]2CC[C@@H](CO)O2` , give its measured cell viability value.
104%

For the molecule `O=C1c2cccc(O)c2C(=O)c2c(O)cc(CO)cc21` , give its measured cell viability value.
90.7%

====

System: P12-Ichikawa
Test: cell viability relative to DMSO control; higher = less cytotoxic
Conditions: RPMI 5 mM glucose + 10% FBS; 48 h; 0.19 µM
The following compounds are shown together with reported cell viability values.
Dear colleague, please return just the value in %, with no unit written.

# count of solved cases: 3
| compound | measured_target | cell viability, % |
| --- | --- | --- |
| CCOC(=O)c1ncn2c1CN(C)C(=O)c1cc(F)ccc1-2 | P12-Ichikawa | 126 |
| Cn1c(=O)c2c(ncn2CC(O)CO)n(C)c1=O (stereo not given) | P12-Ichikawa | 122 |
| CC1=C(C)C2=C(S1)[N]3C(=NN=C3[C@H](CC(=O)OC(C)(C)C)/N=C2/C4=CC=C(Cl)C=C4)C | P12-Ichikawa | 81.1 |

Report cell viability on P12-Ichikawa for this entry: `COc1ccc(CCC(=O)Nc2nc3ccc(Cl)cc3s2)cc1OC`
110

Report cell viability on P12-Ichikawa for this entry: `CC(C)[C@H](CO)Nc1nc(Nc2ccc(C(=O)O)c(Cl)c2)c2ncn(C(C)C)c2n1`
130
